molecular target: T1, TFECDHis (extracellular domain of tissue factor, amino acid 1-251, with C-terminal His tag) (human, UniProt P13726 33-251); assay: ELISA, Fab fragment on coated extracellular domain of TF
T1 construct: range 1-251; The stated range 1-251 starts at residue 1 of NP-001984; also called extracellular domain of TF
Examples of binders with documented EC50 follow.
State the answer as a number, implicitly in mg/L.

Look over these answered cases.
# Binder, EC50 [mg/L]
measured = [
    ("HuMab-TF-044 Fab fragment (Fab, V domains shown, Fab fragment of the HuMab; VH and VL as for the parent antibody) VH: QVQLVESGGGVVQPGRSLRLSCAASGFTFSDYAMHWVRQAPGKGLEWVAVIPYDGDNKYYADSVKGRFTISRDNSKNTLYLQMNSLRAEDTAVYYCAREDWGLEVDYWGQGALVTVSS VL: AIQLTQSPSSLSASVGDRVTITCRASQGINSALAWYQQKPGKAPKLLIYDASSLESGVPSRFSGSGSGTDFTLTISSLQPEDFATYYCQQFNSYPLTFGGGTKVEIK", 0.59),
    ("HuMab-TF-109 Fab fragment (Fab, V domains shown, Fab fragment of the HuMab; VH and VL as for the parent antibody) VH: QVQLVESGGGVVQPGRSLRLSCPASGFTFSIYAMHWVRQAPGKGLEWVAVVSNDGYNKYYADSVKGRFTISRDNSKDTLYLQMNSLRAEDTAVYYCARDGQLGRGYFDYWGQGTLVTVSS VL: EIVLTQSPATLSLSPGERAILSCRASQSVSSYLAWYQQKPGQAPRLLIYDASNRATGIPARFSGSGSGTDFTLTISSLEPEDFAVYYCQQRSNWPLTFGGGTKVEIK", 0.02),
    ("HuMab-TF-011 Fab fragment (Fab, V domains shown, Fab fragment of the HuMab; VH and VL as for the parent antibody; also called -011 Fab fragments) VH: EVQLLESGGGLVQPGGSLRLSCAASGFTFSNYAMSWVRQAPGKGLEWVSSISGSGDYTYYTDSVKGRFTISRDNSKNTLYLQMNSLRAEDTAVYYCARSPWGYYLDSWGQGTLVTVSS VL: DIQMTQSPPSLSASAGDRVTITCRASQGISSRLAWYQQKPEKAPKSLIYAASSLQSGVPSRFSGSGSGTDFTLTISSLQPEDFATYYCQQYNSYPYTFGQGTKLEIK", 0.04),
    ("HuMab-TF-013 Fab fragment (Fab, V domains shown, Fab fragment of the HuMab; VH and VL as for the parent antibody) VH: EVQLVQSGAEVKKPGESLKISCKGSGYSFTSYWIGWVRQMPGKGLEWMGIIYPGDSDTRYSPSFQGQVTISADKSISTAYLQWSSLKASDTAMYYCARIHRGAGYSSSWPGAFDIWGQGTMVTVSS VL: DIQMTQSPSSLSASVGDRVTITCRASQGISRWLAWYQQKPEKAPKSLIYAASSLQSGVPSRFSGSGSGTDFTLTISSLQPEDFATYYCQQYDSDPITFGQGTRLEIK", 0.03),
]

Challenge: Would you kindly share the measured EC50 for HuMab-TF-111 Fab fragment (Fab, V domains shown, Fab fragment of the HuMab; VH and VL as for the parent antibody) VH: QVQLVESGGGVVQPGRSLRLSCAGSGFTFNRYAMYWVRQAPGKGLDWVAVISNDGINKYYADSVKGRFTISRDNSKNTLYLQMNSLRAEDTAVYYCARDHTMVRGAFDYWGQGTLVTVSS VL: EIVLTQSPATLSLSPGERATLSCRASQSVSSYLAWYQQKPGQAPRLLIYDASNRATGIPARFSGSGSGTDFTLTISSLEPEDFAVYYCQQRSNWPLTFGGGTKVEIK ?
Response given: 3.14

Challenge: Would you kindly share the measured EC50 for HuMab-TF-098 Fab fragment (Fab, V domains shown, Fab fragment of the HuMab; VH and VL as for the parent antibody) VH: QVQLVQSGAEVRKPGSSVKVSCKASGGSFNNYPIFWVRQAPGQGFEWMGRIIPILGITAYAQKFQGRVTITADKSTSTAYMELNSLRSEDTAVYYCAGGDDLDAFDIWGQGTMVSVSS VL: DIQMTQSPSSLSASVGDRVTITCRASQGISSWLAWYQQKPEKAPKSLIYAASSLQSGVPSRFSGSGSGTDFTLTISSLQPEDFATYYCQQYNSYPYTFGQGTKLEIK ?
Response given: 1.98
